- measured target: T1, His-tagged cynomolgus monkey TIGIT (Acro Biosystems #TIT-05223) (cynomolgus monkey, UniProt A0A7N9I9V4 89-209)
- T1 construct: Bought protein; also called cyno TIGIT; cynomolgus TIGIT; not shown: His tag
- T1 sequence (A0A7N9I9V4 entry or part of it): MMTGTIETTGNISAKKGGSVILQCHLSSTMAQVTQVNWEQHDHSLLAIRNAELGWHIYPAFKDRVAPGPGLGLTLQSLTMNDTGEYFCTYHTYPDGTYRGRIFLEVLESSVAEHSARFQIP
- protocol details: SPR (Carterra LSA), scFv-Fc captured, His-TIGIT analyte
measured parameter: pKd
Keep it numeric: pKd is minus log10 of the concentration in mol/L.

Examples with answers:
{"binder": "43586p1.2.F6 (scFv, V domains shown, Tested as scFv-Fc supernatant; also called 43586p1.2.F06) VH: EVQLLESGEGLVQPGGSLRLSCAASGFTFTSYLMSWVRQAPGKGLEWVSTITWDGDRTYYADSVKGRFTISRDNSKNTLYLQMNSLRVGDTAVYYCAKHWTVFQYGMDVWGQGTTVTVSS VL: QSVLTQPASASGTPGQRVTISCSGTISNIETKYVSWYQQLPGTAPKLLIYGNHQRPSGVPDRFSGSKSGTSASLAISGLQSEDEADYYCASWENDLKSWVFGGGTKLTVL", "pKd": 7.42}
{"binder": "43645p1.C9 (scFv, V domains shown) VH: EVQLLESGGGLVQPGGSLRLSCAASGFTFSDFWMSWVRQAPGKGLEWVSSIINIQTYDYATYYADSVKGRFTISRDNSKNTLYLQMNSLRAEDTAIYYCAKDVAPGLPGGMDVWGQGTTVTVSS VL: QSVLTQPPSASGTPGQRVTISCSGSNSNIRNNFVSWYQHLPGTAPKLLIYGNSQRPSGVPDRFSGSKSGTSASLAISGLQSEDEADYYCTSWDFSVSGWVFGGGTKLTVL", "pKd": 7.63}

Next binder, pKd to be filled in.
Q) Look up pKd: 43586p1.2.B8 (scFv, V domains shown) VH: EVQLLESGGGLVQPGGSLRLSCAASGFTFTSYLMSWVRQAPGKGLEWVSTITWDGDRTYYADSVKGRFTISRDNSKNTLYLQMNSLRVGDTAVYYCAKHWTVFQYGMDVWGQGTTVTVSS VL: QSVLTQPASASGTPGQRVTITCSGTISNIETKYVSWYQQLPGTAPKLLIYGNHQRPSGVPDRFSGSKSGTSASLAISGLQSEDEADYYCASWENDLKSWVFGGGTKLTVL
A) 7.60
